# tested_on: NL20 human bronchial epithelial cells expressing human Z-AAT (Homo sapiens, UniProt P01009, E366K)
# Construct: expressed in transfected cells; host or cells: NL20 human bronchial epithelial cells (NL20-SI line, doxycycline added)
# Sequence (P01009 25-418 E366K): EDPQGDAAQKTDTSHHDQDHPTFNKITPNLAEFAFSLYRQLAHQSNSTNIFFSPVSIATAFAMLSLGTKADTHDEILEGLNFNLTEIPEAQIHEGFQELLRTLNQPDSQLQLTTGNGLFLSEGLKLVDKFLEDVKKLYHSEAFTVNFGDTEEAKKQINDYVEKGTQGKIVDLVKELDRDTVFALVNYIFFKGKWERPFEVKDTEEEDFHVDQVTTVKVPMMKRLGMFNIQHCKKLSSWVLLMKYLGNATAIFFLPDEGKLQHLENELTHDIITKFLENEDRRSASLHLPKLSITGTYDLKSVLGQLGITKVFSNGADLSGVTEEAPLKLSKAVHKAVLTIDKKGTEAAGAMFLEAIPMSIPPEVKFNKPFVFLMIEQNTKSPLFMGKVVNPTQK
# assay_comment: AAT Function Assay (MSD Assay NL20-SI Cell Line)
# Assay type: cell-based
# test_parameters: functionally active AAT (AAT-hNE complex) in supernatant of NL20 cells expressing human Z-AAT; read-out: NL20 Func. (EC50)

- molecule: "[2H]C([2H])(Cc1c(C(C)C)n(-c2ccc(F)cc2)c2cc3cn[nH]c3cc12)C(=O)O"
  EC50: "1160 to 3000 nM"
- molecule: "CC1(C(=O)O)CC(c2c(C3CCOCC3)n(-c3ccc(F)c(F)c3)c3cc4cn[nH]c4cc23)C1 (single isomer, unassigned) [Compound 69]"
  EC50: "> 3000 nM"
- molecule: "Cc1cc(-n2c(C(C)C)c(N3CCOCC3=O)c3cc4[nH]ncc4cc32)ccc1F"
  EC50: "> 3000 nM"
- molecule: "O=C(O)CCc1c(C2CNC2)n(-c2ccc(F)cc2)c2cc3cn[nH]c3cc12"
  EC50: "> 3000 nM"
- molecule: "O=C(O)C1CC2(C1)CC(c1c(C3CCOCC3)n(-c3ccc(F)cc3)c3cc4cn[nH]c4c(F)c13)C2 (racemic) [Compound 135]"
  EC50: "< 1160 nM"
- molecule: "Cc1cc(-n2c(C3CCOCC3)c(C3CC4(CC(C(=O)O)C4)C3)c3cc4[nH]ncc4cc32)ccc1F (racemic)"
  EC50: "< 1160 nM"
- molecule: "Cc1cc(-n2c(C(C)C)c(C3CC(CC(=O)O)C3)c3cc4[nH]ncc4cc32)ccc1F (mixture of isomers)"
  EC50: "< 1160 nM"

###

# tested_on: NL20 human bronchial epithelial cells expressing human Z-AAT (Homo sapiens, UniProt P01009, E366K)
# Construct: expressed in transfected cells; host or cells: NL20 human bronchial epithelial cells (NL20-SI line, doxycycline added)
# assay_comment: AAT Function Assay (MSD Assay NL20-SI Cell Line)
# Format: cell-based
# test_parameters: functionally active AAT (AAT-hNE complex) in supernatant of NL20 cells expressing human Z-AAT; read-out: NL20 Func. (EC50)
pEC50: −log10 of the molar value.
test_readout: pEC50

- compound: "COCCc1c(C(C)(C)COC)n(-c2ccc(F)cc2)c2cc3cn[nH]c3cc12"
  test_readout: "pEC50"
  value_observed: "5.52 to 5.94"
- compound: "O=C(O)C1CC2(C1)CC(c1c(C3C[C@H]4CC[C@@H](C3)O4)n(-c3ccc(F)cc3)c3cc4cn[nH]c4cc13)C2 (mixture of isomers)"
  test_readout: "pEC50"
  value_observed: "5.52 to 5.94"
- compound: "O=C(O)C1CC2(C1)CC(c1c(C3CCOCC3)n(-c3ccc(F)cc3)c3cc4cn[nH]c4cc13)C2 (racemic)"
  test_readout: "pEC50"
  value_observed: "5.52 to 5.94"
- compound: "Cc1cc(-n2c(C3CCOCC3)c(CCC(=O)O)c3cc4[nH]nc(C)c4cc32)ccc1F"
  test_readout: "pEC50"
  value_observed: "< 5.52"
- compound: "Cc1cc(-n2c(C(C)C)c(CC(C)C(=O)O)c3cc4[nH]ncc4cc32)ccc1F (single isomer, unassigned) [Compound 21]"
  test_readout: "pEC50"
  value_observed: "> 5.94"
- compound: "Cc1cc(-n2c(C(C)C)c(CC(C)C(=O)O)c3cc4[nH]ncc4cc32)ccc1F (racemic) [Compound 19]"
  test_readout: "pEC50"
  value_observed: "> 5.94"
- compound: "C[C@@H](O)C(=O)N1CC2(CC(c3c(C4CCOCC4)n(-c4ccc(F)c(F)c4)c4cc5cn[nH]c5cc34)C2)C1"
  test_readout: "pEC50"
  value_observed: "5.52 to 5.94"

###

# tested_on: NL20 human bronchial epithelial cells expressing human Z-AAT (Homo sapiens, UniProt P01009, E366K)
# Construct: expressed in transfected cells; host or cells: NL20 human bronchial epithelial cells (NL20-SI line, doxycycline added)
# assay_comment: AAT Function Assay (MSD Assay NL20-SI Cell Line)
# Format: cell-based
# test_parameters: functionally active AAT (AAT-hNE complex) in supernatant of NL20 cells expressing human Z-AAT; read-out: NL20 Func. (EC50)
pEC50: −log10 of the molar value.
Listed here are compounds together with their documented pEC50.

- compound: "Cc1cc(-n2c(C(C)C)c(CC(C)C(=O)O)c3cc4[nH]ncc4cc32)ccc1F (single isomer, unassigned) [Compound 20]"
  pEC50: "> 5.94"
- compound: "NC(=O)[C@H]1C[C@@H](Cc2c(C3CCOCC3)n(-c3ccc(F)cc3)c3cc4cn[nH]c4cc23)C1 [Compound 163]"
  pEC50: "5.52 to 5.94"
- compound: "O=C(O)C1CC(Cc2c(C3CCOCC3)n(-c3ccc(F)c(Cl)c3)c3cc4cn[nH]c4cc23)C1 (single isomer, unassigned) [Compound 81]"
  pEC50: "5.52 to 5.94"
- compound: "O=C(O)CCc1c(C2CCOCC2)n(-c2ccc(F)c(F)c2)c2cc3cn[nH]c3cc12 [Compound 64]"
  pEC50: "< 5.52"
- compound: "CC(C)c1c(C#N)c2cc3[nH]ncc3cc2n1-c1cccc(Cl)c1 [Compound 45]"
  pEC50: "< 5.52"
- compound: "O=C(O)C1CC2(C1)CC(c1c(C3CCOCC3)n(-c3ccc(F)c(F)c3)c3cc4cn[nH]c4c(Br)c13)C2 (centres unmarked) [Compound 134]"
  pEC50: "> 5.94"
- compound: "N#Cc1n[nH]c2cc3c(C4CC5(CC(C(=O)O)C5)C4)c(C4CCOCC4)n(-c4ccc(F)c(F)c4)c3cc12 (centres unmarked) [Compound 186]"
  pEC50: "< 5.52"
- compound: "CC(C)c1c(CCC(=O)N[C@@H]2C(=O)NC[C@H]2O)c2cc3[nH]ncc3cc2n1-c1ccc(F)cc1 (stereo in doubt) [Compound 211]"
  pEC50: "< 5.52"
- compound: "Cc1c2[nH]ncc2cc2c1c(C1=CC3(C1)CC(C(=O)O)C3)c(C1CCOCC1)n2-c1ccc(F)c(F)c1 (centres unmarked) [Compound 132]"
  pEC50: "> 5.94"
- compound: "O=C(O)[C@H]1C[C@H](c2c(C3CCOCC3)n(-c3ccc(F)c(F)c3)c3cc4cn[nH]c4cc32)C1 [Compound 66]"
  pEC50: "5.52 to 5.94"
- compound: "CC(C)(CC#N)c1c(CCC(N)=O)c2cc3[nH]ncc3cc2n1-c1ccc(F)cc1 [Compound 191]"
  pEC50: "< 5.52"
- compound: "Cc1cc(-n2c(C(C)C)c(C3CC3C(=O)O)c3cc4[nH]ncc4cc32)ccc1F (single isomer, unassigned) [Compound 13]"
  pEC50: "> 5.94"
- compound: "O=C(O)[C@H]1CC[C@@H](Cc2c(C3CCOCC3)n(-c3ccc(F)c(F)c3)c3cc4cn[nH]c4cc23)CC1 (single isomer, unassigned) [Compound 73]"
  pEC50: "> 5.94"
- compound: "O=C(O)[C@H]1CC[C@H](c2c(C3CCOCC3)n(-c3ccc(F)c(F)c3)c3cc4cn[nH]c4cc32)CC1 [Compound 75]"
  pEC50: "> 5.94"

###

# tested_on: NL20 human bronchial epithelial cells expressing human Z-AAT (Homo sapiens, UniProt P01009, E366K)
# Construct: expressed in transfected cells; host or cells: NL20 human bronchial epithelial cells (NL20-SI line, doxycycline added)
# assay_comment: AAT Function Assay (MSD Assay NL20-SI Cell Line)
# Type: cell-based
# test_parameters: functionally active AAT (AAT-hNE complex) in supernatant of NL20 cells expressing human Z-AAT; read-out: NL20 Func. (EC50)
# maps each entry to its EC50

- compound: "O=C(O)[C@H]1C[C@@H](c2c(C3CCOCC3)n(-c3ccc(F)cc3)c3cc4cn[nH]c4cc32)C1"
  EC50: "> 3 µM"
- compound: "O=C(O)C1CC(Cc2c(C3CCOCC3)n(-c3ccc(F)c(Cl)c3)c3cc4cn[nH]c4cc23)C1 (mixture of isomers) [Compound 79]"
  EC50: "1.16 to 3 µM"
- compound: "Cc1cc(-n2c(C3CCOCC3)c(C[C@H]3CC[C@H](C(=O)O)CC3)c3cc4[nH]ncc4cc32)ccc1F (single isomer, unassigned)"
  EC50: "< 1.16 µM"
- compound: "Cc1cc(-n2c(C3CCOCC3)c(CCCC(=O)O)c3cc4[nH]ncc4cc32)ccc1F"
  EC50: "1.16 to 3 µM"
- compound: "O=C(O)C1(Cc2c(C3CCOCC3)n(-c3ccc(F)cc3)c3cc4cn[nH]c4cc23)CC1"
  EC50: "1.16 to 3 µM"
- compound: "Cc1cc(-n2c(C(C)C)c(CCC(=O)O)c3c(F)c4[nH]ncc4cc32)ccc1F"
  EC50: "< 1.16 µM"
- compound: "CC(C)c1c(C#N)c2cc3[nH]ncc3cc2n1-c1ccc(F)cc1"
  EC50: "< 1.16 µM"

Data provenance is patent US11623924B2.
